# assay-explanation: in vitro
# experimental-context: human, hela cells, % viability

compound	viability at 28.5 h, 10 µM (%)
CCN(CC)C(=O)c1sc2ncccc2c1NS(=O)(=O)c1ccc(C)c([N+](=O)[O-])c1	112
Cc1ccc(C(=O)C(OC(=O)CN2C(=O)c3cccc([N+](=O)[O-])c3C2=O)c2ccccc2)cc1C (centres unmarked)	109
Cc1cccc(-c2ncc(NC(=O)Cc3ccc(OC(F)(F)F)cc3)nc2-c2cccnc2)c1	89.2
CCOC(=O)NC(Nc1cccc(C)n1)(C(F)(F)F)C(F)(F)F	115
CC(C)OCC1CN(c2cc(CO)c(F)cn2)CCO1 (centres unmarked)	89.7
CC(C)Nc1nc2cc(Cl)c(Cl)cc2nc1SCCC(=O)O	96.1
O=C(Nc1cccnc1N1CCNCC1)c1cccnc1 [CBK029426T]	120
CCCCc1c(O)[nH]c2nc3ccccc3n2c1=O	98.1
CN(C)c1ccc(CC(=O)N2CCCc3ccccc32)cc1	83.6
COc1cccc(C(=O)Nc2ccc(-c3noc(-c4ccncc4)n3)cc2)c1	93.4
Clc1ccc(CNC2CCCCC2NCc2ccc(Cl)nc2)cn1 (centres unmarked)	82.7
[O-][N+]1=C2CCc3c(no[n+]3[O-])C2(O)CC1N1CCOCC1 (centres unmarked)	112
Cc1ccc(C(=O)CN2CCCC3(C2)NCCc2c3[nH]c3c(C)cccc23)cc1 (centres unmarked)	96
CN1CCN(Cc2nc3c(c(=O)n(C)c(=O)n3C)n2Cc2c(F)cccc2Cl)CC1	98.3
COc1ccc(S(=O)(=O)NCCNC(=O)c2cc(Br)cnc2N(C)S(C)(=O)=O)cc1	110
CN(C)C(CC(=O)Nc1cccc(Cl)c1Cl)C(=O)O (centres unmarked)	107
CC(=O)N1CCc2cc(C(=O)CN3CCOCC3)ccc21	89.2
C/C(=C1/SC(=S)N(CCC(=O)O)C1=O)c1ccc(O)cc1	102
Cc1ccc(CNC(=O)CCC(=O)O)cc1	120
O=C(O)c1ccc(C(=O)O)c2c(C(=O)O)cccc12	82.3
